Reference source for all entries: patent US20260116884A1

- Test Details: Pharmacokinetics of single administration in mice
- Assay type: in vivo, Balb/c mice
- Condition Set: female, Balb/c, mouse, plasma, po 10 mg/kg vs iv 2 mg/kg
Reported Property: bioavailability (%)

Please review the entries below; each comes with its answer.
Structure As Smiles: O=C1CCN(c2cc(C(=O)N3CCC(CC4CCN(c5ccc(-c6cnc7[nH]cc(-c8cnn(CC(F)F)c8)c7n6)cn5)CC4)CC3)ccc2Cl)C(=O)N1
bioavailability [%]: 20.7
//
Structure As Smiles: COCCn1cc(-c2c[nH]c3ncc(-c4ccc(N5CCC(CC6CCN(C(=O)c7ccc(Cl)c(N8CCC(=O)NC8=O)c7)CC6)CC5)nc4)nc23)cn1
bioavailability [%]: 34.2
//
Structure As Smiles: [2H]C([2H])([2H])n1cc(-c2c[nH]c3ncc(-c4ccc(N5CCC(CC6CCN(C(=O)c7ccc(Cl)c(N8CCC(=O)NC8=O)c7)CC6)CC5)nc4)nc23)cn1
bioavailability [%]: 29.6
//
Structure As Smiles: O=C1CCN(c2cc(C(=O)N3CCC(CC4CCN(c5ccc(-c6cnc7[nH]cc(-c8cnn(C9CC9)c8)c7n6)cn5)CC4)CC3)ccc2Cl)C(=O)N1
bioavailability [%]: 27.6

(I) CCn1cc(-c2c[nH]c3ncc(-c4ccc(N5CCC(CC6CCN(C(=O)c7ccc(Cl)c(N8CCC(=O)NC8=O)c7)CC6)CC5)nc4)nc23)cn1
(II) C/C(=C(Cl)\C=C/CC(=O)N1CCC(CC2CCN(c3ccc(-c4cnc5[nH]cc(-c6cnn(C)c6)c5n4)cn3)CC2)CC1)N1CCC(=O)NC1=O
QUERY: Which one would you say has the larger bioavailability value: I , or II ? When you have decided, please share the label of that item.
RESULT: I
